Organism: Oryctolagus cuniculus
Test: Binding constant (Kobs) against 10% rabbit liver homogenate was determined.
Type: ADME
Provide the recorded K obs for the entries that follow.
Answers are plain numbers, in min⁻¹.

>  <SMILES_NOTATION>
C1CCNCC1.C1CCNCC1.CC(C)(C)C(=O)OCOP(=O)(O)C(Cl)(Cl)P(=O)(O)OCOC(=O)C(C)(C)C

>  <K obs / min⁻¹>
0.51

$$$$

Now for another entry.
Query: State its K obs: `CC(C)(C)C(=O)OCOP(=O)(O)C(Cl)(Cl)P(=O)(OCOC(=O)C(C)(C)C)OCOC(=O)C(C)(C)C`
Reply: 0.65

---

Assay: Hydrolysis half life against 80% human serum was determined.
Type: ADME
READOUT_KIND: half-life (h)
Numbers only, in h.

Query: State its half-life: `CC(C)(C)C(=O)OCOP(=O)(O)C(Cl)(Cl)P(=O)(OCOC(=O)C(C)(C)C)OCOC(=O)C(C)(C)C`
Reply: 1.3
